Reference source: patent US20260355184A1

# System: HIV NL4.3 strain
# method_description: HIV infectivity assay, reporter cell line HeLa-CD4-LTR-LacZ, β-Gal activity (Tat protein inhibition)
# Type: cell-based, HIV-1 (NL4.3)
# measurement_conditions: Human immunodeficiency virus 1, read-out: Infectivity IC50, HeLa-CD4-LTR-LacZ; analogs of TT-44881 (Table 1)
Some molecules, each annotated with its measured IC50.
observation_type: IC50

{"columns": ["molecule", "target_or_system", "val"],
 "data": [
  ["N#Cc1ccc(CNC(=O)c2cn(-c3ccccc3)c3ccccc23)cc1 [compound 41969]", "HIV NL4.3 strain", "12.4 µM"],
  ["Cc1cc(NCCCN2CCCC2=O)n2nc(C)nc2n1 [compound 46930]", "HIV NL4.3 strain", "> 100 µM"],
  ["O=C(NCCCN1CCCC1=O)c1nn(-c2ccccc2)cc1F [compound 47010]", "HIV NL4.3 strain", "> 100 µM"],
  ["O=C(NCc1ccccc1N1CCCCC1)c1cn(-c2ccccc2)c2ccccc12 [compound 41924]", "HIV NL4.3 strain", "> 100 µM"]
]}

====

# method_description: Cytotoxicity assay, Cell-Titer-Glo, HeLa-CD4-LTR-LacZ
# measurement_conditions: human, hela-cd4-ltr-lacz cells, Infectivity CC50, HeLa-CD4-LTR-LacZ; analogs of TT-44856 (Table 3)
observation_type: CC50

{"columns": ["compound", "val"],
 "data": [
  ["CCCC(=O)NC(C(=O)NCCCn1ccnc1)(c1ccccc1)c1ccccc1 [3-60]", "> 100 µM"],
  ["CCCC(C(=O)NCCCn1ccnc1C)(c1ccccc1)c1ccccc1 [3-65]", "50 to 100 µM"],
  ["O=C(NCCCn1ccnc1)C1c2ccccc2-c2ccccc21 [3-35]", "> 100 µM"],
  ["Cc1ccc(CC(=O)NCCCn2cnc3ccccc32)cc1 [Z102452176]", "> 100 µM"],
  ["Cc1nccn1CCCNC(=O)C(c1ccccc1)(c1ccccc1)c1ccccc1 [3-67]", "50 to 100 µM"]
]}

====

# method_description: Cytotoxicity assay, Cell-Titer-Glo, HeLa-CD4-LTR-LacZ
# measurement_conditions: human, hela-cd4-ltr-lacz cells, Infectivity CC50, HeLa-CD4-LTR-LacZ; analogs of TT-44863 (Table 2)

{"columns": ["molecule", "CC50"],
 "data": [
  ["COc1ccc(C(F)(F)F)cc1-c1noc(Cn2cc(C(F)(F)F)cc(Cl)c2=O)n1", "> 100 µM"],
  ["COc1ccc(C(F)(F)F)cc1NC(=O)Cn1cc(C)cc(Cl)c1=O", "> 100 µM"],
  ["COc1ccc(C(F)(F)F)cc1-c1noc(Cn2cc(C(F)(F)F)ccc2=O)n1", "> 50 µM"],
  ["COc1ccc(F)cc1NC(=O)Cn1cc(C(F)(F)F)cc(Cl)c1=O", "50 to 100 µM"],
  ["COc1ccc(C#N)cc1NC(=O)Cn1cc(C)cc(Cl)c1=O", "> 50 µM"],
  ["COc1ccc(C(F)(F)F)cc1NC(=O)Cn1cc(C(F)(F)F)cc(Br)c1=O", "50 to 100 µM"],
  ["COc1ccc(C(F)(F)F)cc1NC(=O)C(C)n1cc(C(F)(F)F)cc(-c2ccccc2)c1=O (stereo not shown)", "> 100 µM"],
  ["COc1ccccc1CNC(=O)Cn1cccc(Cl)c1=O", "> 100 µM"],
  ["COc1ccc(Cl)cc1NC(=O)Cn1cc(C(F)(F)F)cc(Cl)c1=O", "50 to 100 µM"],
  ["CC(C)(C)OC(=O)COCCOCCOc1ccc(C(F)(F)F)cc1NC(=O)Cn1cc(C(F)(F)F)cc(Cl)c1=O", "> 100 µM"],
  ["CCOC(=O)c1sc(NC(=O)Cn2cc(C(F)(F)F)cc(Cl)c2=O)nc1C(F)(F)F", "25 to 50 µM"],
  ["COc1ccc(OC)c(NC(=O)Cn2cc(C(F)(F)F)cc(Cl)c2=O)c1", "> 100 µM"],
  ["COCCOc1ccccc1NC(=O)Cn1cccc(Cl)c1=O", "> 100 µM"],
  ["O=C(O)COCCOCCOc1ccc(C(F)(F)F)cc1NC(=O)Cn1cc(C(F)(F)F)cc(Cl)c1=O", "> 100 µM"],
  ["COCCOc1ccc(C(F)(F)F)cc1NC(=O)Cn1cc(C(F)(F)F)cc(Cl)c1=O", "> 800 µM"],
  ["COc1ccc(C#N)cc1NC(=O)Cn1cc(C(F)(F)F)cc(Cl)c1=O", "50 to 100 µM"],
  ["CCN(CC(=O)Nc1cc(C(F)(F)F)ccc1OCCOC)C(=O)Cc1ccccc1", "~80 µM"],
  ["CCOc1ccccc1NC(=O)Cn1c(C)cc(COC)c(C#N)c1=O", "> 100 µM"],
  ["COc1ccc(C(F)(F)F)cc1NC(=O)C(C)n1cc(C(F)(F)F)cc(Cl)c1=O (stereo not shown)", "> 100 µM"],
  ["COc1cc(NC(=O)Cn2cc(C(F)(F)F)cc(Cl)c2=O)cc(C(F)(F)F)c1", "> 100 µM"],
  ["COc1ccc(C(F)(F)F)cc1CNC(=O)Cn1cc(C(F)(F)F)cc(Cl)c1=O", "> 100 µM"],
  ["COc1ccc(C)cc1NC(=O)Cn1cc(C(F)(F)F)cc(Cl)c1=O", "> 100 µM"]
]}
